Biological target: Lysine-specific histone demethylase 1A (Homo sapiens, UniProt O60341)
Assay: Inhibition of human LSD1 assessed as demethylase activity of LSD1 using Histone H3(1-21)K4me2 peptide as substrate incubated for 30 mins followed by substrate addition by amplex red dye based HRP-coupled assay
assayEndpoint: pEC50
Field pEC50 (float): negative decimal logarithm of the concentration in molar.

Inquiry: Please look up its pEC50: "C#CCN(C)CCCOc1cc(NCc2ccc(C(=O)NO)cc2)ccc1Cl"
Reply text: 5.22

Please examine the following record next.
Inquiry: Please look up its pEC50: "C#CCN(C)CCCOc1cc(NCc2ccc(/C=C/C(=O)NO)cc2)ccc1Cl"
Reply text: 5.00

----------
Molecular target: Amine oxidase [flavin-containing] A (Homo sapiens, UniProt P21397)
Sequence (P21397 whole entry): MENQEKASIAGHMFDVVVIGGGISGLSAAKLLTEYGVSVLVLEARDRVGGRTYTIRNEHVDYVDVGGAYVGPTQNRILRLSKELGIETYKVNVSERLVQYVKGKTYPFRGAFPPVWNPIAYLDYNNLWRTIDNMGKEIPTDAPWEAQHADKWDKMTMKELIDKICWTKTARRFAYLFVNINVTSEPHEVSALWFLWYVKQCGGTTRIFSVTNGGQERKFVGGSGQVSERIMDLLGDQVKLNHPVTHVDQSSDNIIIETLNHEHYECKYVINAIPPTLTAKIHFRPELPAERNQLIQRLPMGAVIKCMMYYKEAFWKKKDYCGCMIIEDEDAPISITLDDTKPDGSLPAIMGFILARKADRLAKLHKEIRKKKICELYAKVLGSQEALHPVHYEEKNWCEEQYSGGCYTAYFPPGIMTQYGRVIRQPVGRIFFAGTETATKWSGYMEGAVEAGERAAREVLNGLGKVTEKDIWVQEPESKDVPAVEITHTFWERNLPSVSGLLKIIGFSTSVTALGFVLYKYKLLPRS
Experiment: Inhibition of MAO-A (unknown origin) expressed in mouse GL26 cells using 14C 5-hydroxytryptamine as substrate pre-incubated for 20 mins followed by substrate addition measured after 20 mins by liquid scintillation spectroscopy
Consider the cut-off 0.03 µM. If the recorded IC50 is strictly smaller, the label is t; if not, the label is f.

Inquiry: Decide: IC50 of "C#CCN(C)CCCOc1cc(NC(=O)CCCCCCC(=O)NO)ccc1Cl" strictly below 0.03 µM?
Reply text: f

Inquiry: Decide: IC50 of "C#CCN(C)CCCOc1cc(NCc2ccc(C(=O)NO)cc2)ccc1Cl" strictly below 0.03 µM?
Reply text: t

Inquiry: Decide: IC50 of "C#CCN(C)CCCOc1cc(NC(=O)CCCCCCCCC(=O)NO)ccc1Cl" strictly below 0.03 µM?
Reply text: t

Inquiry: Decide: IC50 of "C#CCN(C)CCCOc1cc(NC(=O)CCCCCCCC(=O)NO)ccc1Cl" strictly below 0.03 µM?
Reply text: t

Continuing:
Inquiry: Decide: IC50 of "C#CCN(C)CCCOc1cccc(NC(=O)CCCCCCC(=O)NO)c1Cl" strictly below 0.03 µM?
Reply text: f

Inquiry: Decide: IC50 of "C#CCN(C)CCCOc1cc(NC(=O)CCCCCCC(=O)NO)c(Cl)cc1Cl" strictly below 0.03 µM?
Reply text: f

Inquiry: Decide: IC50 of "C#CCN(C)CCCOc1cc(NCc2ccc(/C=C/C(=O)NO)cc2)ccc1Cl" strictly below 0.03 µM?
Reply text: t

----------
Experiment: Toxicity in mouse bearing intracranial tumor assessed as median survival time at 50 mg/kg, ip for 10 days (Rvb= 13.8 days)
Format: organism-based
Settings: in vivo, 240 h, time 10 day
assayEndpoint: Survival (days)
Kindly answer with a numeric value in days, unit omitted.

Inquiry: Please look up its Survival: O=C(CCCCCCC(=O)Nc1ccccc1)NO [VORINOSTAT]
Reply text: 13.8

Inquiry: Please look up its Survival: "C#CCN(C)CCCOc1cc(NC(=O)CCCCCCCCC(=O)NO)ccc1Cl"
Reply text: 14.8

Continuing:
Inquiry: Please look up its Survival: "C#CCN(C)CCCOc1ccc(NC(=O)CCCCCCC(=O)NO)cc1Cl"
Reply text: 14.4

Inquiry: Please look up its Survival: "C#CCN(C)CCCOc1cc(NCc2ccc(C(=O)NO)cc2)ccc1Cl"
Reply text: 16.8

----------
Assay: Cytotoxicity against mouse GL26 cells assessed as inhibition of cell growth incubated for 48 hrs by MTT assay
Format: functional, cell-based
Conditions: GL26, 48 h
# maps each entry to its IC50
Write your answer as a measured quantity: the number, then the unit.

In the examples that follow, each entry is paired with its recorded IC50.
Inquiry: Please look up its IC50: "C#CCN(C)CCCOc1cccc(NC(=O)CCCCCCC(=O)NO)c1Cl"
Reply text: 1740 nM

Inquiry: Please look up its IC50: "O=C(CCCCCCC(=O)Nc1ccccc1)NO"
Reply text: 2200 nM

Continuing:
Inquiry: Please look up its IC50: "C#CCN(C)CCCOc1cc(NC(=O)CCCCCCC(=O)NO)ccc1Cl"
Reply text: 1150 nM

Inquiry: Please look up its IC50: "C#CCN(C)CCCOc1ccc(NC(=O)CCCCCCC(=O)NO)cc1Cl"
Reply text: 6040 nM

Inquiry: Please look up its IC50: "C#CCN(C)CCCOc1ccc(Cl)cc1Cl"
Reply text: 169000 nM

Inquiry: Please look up its IC50: "C#CCN(C)CCCOc1cc(NCc2ccc(/C=C/C(=O)NO)cc2)ccc1Cl"
Reply text: 120 nM

Inquiry: Please look up its IC50: "C#CCN(C)CCCOc1cc(NC(=O)CCCCCCCC(=O)NO)ccc1Cl"
Reply text: 19300 nM

Inquiry: Please look up its IC50: "C#CCN(C)CCCOc1cc(NC(=O)CCCCCCCCC(=O)NO)ccc1Cl"
Reply text: 1040 nM

Inquiry: Please look up its IC50: "C#CCN(C)CCCOc1cc(NC(=O)CCCCCCC(=O)NO)c(Cl)cc1Cl"
Reply text: 74000 nM

Inquiry: Please look up its IC50: "C#CCN(C)CCCOc1cc(NCc2ccc(C(=O)NO)cc2)ccc1Cl"
Reply text: 2410 nM

----------
Test: Toxicity in mouse bearing intracranial tumor assessed as assessed as median survival time at 50 mg/kg, ip for 14 days treatment started at 5 days post-infection (Rvb=12.8 days)
Type: organism-based
Conditions: in vivo, 336 h, time 14 day
# maps each entry to its MST
Kindly answer with a numeric value in days, unit omitted.

In the examples that follow, each entry is paired with its recorded MST.
Inquiry: Please look up its MST: "C#CCN(C)CCCOc1ccc(NC(=O)CCCCCCC(=O)NO)cc1Cl"
Reply text: 14.25

Inquiry: Please look up its MST: "C#CCN(C)CCCOc1cc(NCc2ccc(C(=O)NO)cc2)ccc1Cl"
Reply text: 14.25

Inquiry: Please look up its MST: "C#CCN(C)CCCOc1cc(NC(=O)CCCCCCCCC(=O)NO)ccc1Cl"
Reply text: 14.5

Please examine the following record next.
Inquiry: Please look up its MST: "C#CCN(C)CCCOc1cc(NCc2ccc(/C=C/C(=O)NO)cc2)ccc1Cl"
Reply text: 12.75
